Molecular target: prostaglandin E2-induced contractions of segments of guinea pig ileum (Cavia porcellus, UniProt A0A286XHJ6)
Construct: The ilea were then quickly removed from the guinea pigs; from tissue; host or cells: ileum segments of male albino guinea pigs
Sequence (A0A286XHJ6 1-405): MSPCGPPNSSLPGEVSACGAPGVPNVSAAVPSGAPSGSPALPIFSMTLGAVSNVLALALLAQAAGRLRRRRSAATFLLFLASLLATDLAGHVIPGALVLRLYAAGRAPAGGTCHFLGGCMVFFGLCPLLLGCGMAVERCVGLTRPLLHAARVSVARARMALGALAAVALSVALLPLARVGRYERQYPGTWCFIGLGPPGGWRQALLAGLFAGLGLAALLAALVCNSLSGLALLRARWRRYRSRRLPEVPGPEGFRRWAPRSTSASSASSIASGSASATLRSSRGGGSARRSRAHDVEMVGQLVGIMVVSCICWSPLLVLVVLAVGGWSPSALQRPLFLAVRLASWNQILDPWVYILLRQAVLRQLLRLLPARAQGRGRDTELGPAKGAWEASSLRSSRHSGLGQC
Assay: Prostaglandin (PGE) Antagonism Assay in guinea pig ileum
Settings: initial concentration 3 micromolar; estimated pA2 (slope -1.0 assumed) or Schild plot pA2
assay_metric: Kb (µM)

Worked cases, Kb given:
{"molecule": "CCS(=O)(=O)CCC(=O)NNC(=O)N1Cc2ccccc2Oc2ccc(C)cc21 [Example 17]", "unit_string": "µM", "Kb": 2.09}
{"molecule": "CCS(=O)(=O)CCC(=O)NNC(=O)N1Cc2ccccc2Oc2ccc(N)cc21 [Example 13]", "unit_string": "µM", "Kb": 2.82}
{"molecule": "CCS(=O)(=O)CCC(=O)NNC(=O)N1Cc2ccccc2Oc2cc(C(=O)OC(C)(C)C)ccc21 [Example 5]", "unit_string": "µM", "Kb": 1.17}
{"molecule": "CCS(=O)(=O)CCC(=O)NNC(=O)N1Cc2ccccc2Oc2c(Cl)cccc21 [Example 12]", "unit_string": "µM", "Kb": 1.15}
{"molecule": "CCS(=O)(=O)CCC(=O)NNC(=O)N1Cc2ccccc2Oc2cc(C(=O)OC)ccc21 [Example 2]", "unit_string": "µM", "Kb": 2}
{"molecule": "CCS(=O)(=O)CCC(=O)NNC(=O)N1Cc2ccccc2Oc2ccc(OC)cc21 [Example 16]", "unit_string": "µM", "Kb": 2}
{"molecule": "CCS(=O)(=O)CCC(=O)NNC(=O)N1Cc2ccccc2Oc2ccc(C(F)(F)F)cc21 [Example 20]", "unit_string": "µM", "Kb": 1.26}
{"molecule": "CCS(=O)(=O)CCC(=O)NNC(=O)N1Cc2ccccc2Oc2ccc(C(=O)OC(C)(C)C)cc21 [Example 3]", "unit_string": "µM", "Kb": 1.78}

(P) CCS(=O)(=O)CCC(=O)NNC(=O)N1Cc2cc(Cl)ccc2Oc2ccc(Cl)cc21 [Example 9]
(Q) CCS(=O)(=O)CCC(=O)NNC(=O)N1Cc2ccccc2Oc2ccc([N+](=O)[O-])cc21 [Example 10]
(R) CCS(=O)(=O)CCC(=O)NNC(=O)N1Cc2ccccc2Oc2ccccc21 [Example 21]
(S) CCN(CC)c1ccc2c(c1)N(C(=O)NNC(=O)CCS(=O)(=O)CC)Cc1ccccc1O2 [Example 15]
Please put the entries in order of rising Kb. As an answer, provide the labels arranged in the order called for.
S, R, P, Q
(S: 0.708 µM, R: 1.05 µM, P: 1.58 µM, Q: 2.88 µM)

---

target: prostaglandin E2-induced contractions of segments of guinea pig ileum (Cavia porcellus, UniProt A0A286XHJ6); construct: The ilea were then quickly removed from the guinea pigs; from tissue; host or cells: ileum segments of male albino guinea pigs; assay: Prostaglandin (PGE) Antagonism Assay in guinea pig ileum; conditions: initial concentration 3 micromolar; estimated pA2 (slope -1.0 assumed) or Schild plot pA2
assay_metric: Kb (nM)

{"sample_smiles": "CCS(=O)(=O)CCC(=O)NNC(=O)N1Cc2ccccc2Oc2cc(C(=O)O)ccc21", "unit_string": "nM", "Kb": 2630}
{"sample_smiles": "CCS(=O)(=O)CCC(=O)NNC(=O)N1Cc2cccc(Cl)c2Oc2ccccc21", "unit_string": "nM", "Kb": 2690}
{"sample_smiles": "CCS(=O)(=O)CCC(=O)NNC(=O)N1Cc2ccccc2Oc2ccc(C(=O)OC)cc21", "unit_string": "nM", "Kb": 2880}
{"sample_smiles": "CCS(=O)(=O)CCC(=O)NNC(=O)N1Cc2ccccc2Oc2ccc(O)cc21", "unit_string": "nM", "Kb": 2570}

Data provenance: patent US5461046A
